Measured IC50, listed per entry.
# targetUnderTest: mTORC2 (Homo sapiens, UniProt P42345+P62942)
# Construct: endogenous in cells; host or cells: PC3 cells (human prostate adenocarcinoma)
# test: Inhibition assay for mTORC2: phosphorylation of pAkt at Ser473, AlphaLISA SureFire in PC3 cells
# Assay type: cell-based
# conditionInfo: PC3 cells, 24 hours treatment, analogs substituted at C40 and C16 (C16 diastereomer mixtures not isolated), read-out: pIC50 mTORC2 (converted)

- molecule: "CO[C@@H]1C[C@H](C[C@@H](C)[C@@H]2CC(=O)[C@H](C)/C=C(\\C)[C@@H](O)[C@@H](OC)C(=O)[C@H](C)C[C@H](C)/C=C/C=C/C=C(\\C)C(OCCO)C[C@@H]3CC[C@@H](C)[C@@](O)(O3)C(=O)C(=O)N3CCCC[C@H]3C(=O)O2)CC[C@H]1OCCCN1CCO[C@H](C)C1 (mixture of isomers)"
  targetUnderTest: "mTORC2 (Homo sapiens, UniProt P42345+P62942)"
  result: "> 10 µM"

The molecule CO[C@@H]1C[C@H](C[C@@H](C)[C@@H]2CC(=O)[C@H](C)/C=C(\C)[C@@H](O)[C@@H](OC)C(=O)[C@H](C)C[C@H](C)/C=C/C=C/C=C(\C)C(OCCO)C[C@@H]3CC[C@@H](C)[C@@](O)(O3)C(=O)C(=O)N3CCCCC3C(=O)O2)CC[C@H]1OCCCCN1CCOCC1 (stereo partly shown) showed IC50 equal to 1 to 10 µM

The molecule CO[C@@H]1C[C@H](C[C@@H](C)[C@@H]2CC(=O)[C@H](C)/C=C(\C)[C@@H](O)[C@@H](OC)C(=O)[C@H](C)C[C@H](C)/C=C/C=C/C=C(\C)C(OCCOCCO)C[C@@H]3CC[C@@H](C)[C@@](O)(O3)C(=O)C(=O)N3CCCCC3C(=O)O2)CC[C@H]1OCCO (stereo partly shown) showed IC50 equal to > 10 µM

The molecule CO[C@@H]1C[C@H](C[C@@H](C)[C@@H]2CC(=O)[C@H](C)/C=C(\C)[C@@H](O)[C@@H](OC)C(=O)[C@H](C)C[C@H](C)/C=C/C=C/C=C(\C)C(OC(C)C)C[C@@H]3CC[C@@H](C)[C@@](O)(O3)C(=O)C(=O)N3CCCCC3C(=O)O2)CC[C@H]1OCCCc1ccccc1 (stereo partly shown) showed IC50 equal to > 10 µM

The molecule COCCOCCOC1C[C@@H]2CC[C@@H](C)[C@@](O)(O2)C(=O)C(=O)N2CCCCC2C(=O)O[C@H]([C@H](C)C[C@@H]2CC[C@@H](OCCO)[C@H](OC)C2)CC(=O)[C@H](C)/C=C(\C)[C@@H](O)[C@@H](OC)C(=O)[C@H](C)C[C@H](C)/C=C/C=C/C=C/1C (stereo partly shown) showed IC50 equal to > 10 µM

The molecule CO[C@@H]1C[C@H](C[C@@H](C)[C@@H]2CC(=O)[C@H](C)/C=C(\C)[C@@H](O)[C@@H](OC)C(=O)[C@H](C)C[C@H](C)/C=C/C=C/C=C(\C)C(OCCO)C[C@@H]3CC[C@@H](C)[C@@](O)(O3)C(=O)C(=O)N3CCCCC3C(=O)O2)CC[C@H]1OCCCN1C[C@@H](C)O[C@@H](C)C1 (stereo partly shown) showed IC50 equal to > 10 µM

The molecule COCCOC1C[C@@H]2CC[C@@H](C)[C@@](O)(O2)C(=O)C(=O)N2CCCCC2C(=O)O[C@H]([C@H](C)C[C@@H]2CC[C@@H](OCCCN3CCC[C@H](O)C3)[C@H](OC)C2)CC(=O)[C@H](C)/C=C(\C)[C@@H](O)[C@@H](OC)C(=O)[C@H](C)C[C@H](C)/C=C/C=C/C=C/1C (stereo partly shown) showed IC50 equal to 1 to 10 µM
